# reported Efficacy; entries follow
# Target Or Test System: Transient receptor potential cation channel subfamily A member 1 (Rattus norvegicus)
# Assay Info: Agonist activity at rat TRPA1 channel expressed in human HEK293 cells assessed as elevation in intracellular calcium flux at 100 uM relative to mustard oil
# Type: functional, cell-based

Worked set:
test_smiles=N#CCn1nnc(CNC(=O)c2ccc(-c3ccccc3)cc2)n1 result_value=0%
test_smiles=COC(=O)Cn1nnnc1CNC(=O)c1ccc(-c2ccccc2)cc1 result_value=0%
test_smiles=CC(=O)Cn1nnnc1Cc1ccc(-c2ccccc2)cc1 result_value=11.4%
test_smiles=CC(=O)Cn1nnnc1CNC(=O)c1ccc(-c2ccccc2)cc1 result_value=0%
test_smiles=CC(=O)Cn1nnc(Cc2ccc(-c3ccccc3)cc2)n1 result_value=61.4%

For the compound "N#CCn1nnc(Cc2ccc(-c3ccccc3)cc2)n1" , what Efficacy is on record?
102%

What Efficacy value was documented for this compound, "COC(=O)Cn1nnc(CNC(=O)c2ccc(-c3ccccc3)cc2)n1" ?
0%

---

# Target Or Test System: Transient receptor potential cation channel subfamily A member 1 (Rattus norvegicus)
# Assay Info: Agonist activity at rat TRPA1 channel expressed in human HEK293 cells assessed as elevation in intracellular calcium flux at 100 uM relative to mustard oil
# Type: functional, cell-based
Below: a set of entries, each annotated with reported Efficacy.
Write it as a number; the unit % goes unstated.

// below: answered compounds
test_smiles=CN(C)C(=O)Cn1nnc(CNC(=O)c2ccc(-c3ccccc3)cc2)n1 target_or_test_system="Transient receptor potential cation channel subfamily A member 1 (Rattus norvegicus)" measurement_label=Efficacy result_value=0
test_smiles=CC(C)Cn1nnnc1CNC(=O)c1ccc(-c2ccccc2)cc1 target_or_test_system="Transient receptor potential cation channel subfamily A member 1 (Rattus norvegicus)" measurement_label=Efficacy result_value=26.1
test_smiles=COC(=O)Cn1nnnc1Cc1ccc(-c2ccccc2)cc1 target_or_test_system="Transient receptor potential cation channel subfamily A member 1 (Rattus norvegicus)" measurement_label=Efficacy result_value=0
test_smiles=N#CCn1nnnc1CNC(=O)c1ccc(-c2ccccc2)cc1 target_or_test_system="Transient receptor potential cation channel subfamily A member 1 (Rattus norvegicus)" measurement_label=Efficacy result_value=0
test_smiles=CC(C)Cn1nnc(CNC(=O)c2ccc(-c3ccccc3)cc2)n1 target_or_test_system="Transient receptor potential cation channel subfamily A member 1 (Rattus norvegicus)" measurement_label=Efficacy result_value=0
test_smiles=CC(C)Cn1nnc(Cc2ccc(-c3ccccc3)cc2)n1 target_or_test_system="Transient receptor potential cation channel subfamily A member 1 (Rattus norvegicus)" measurement_label=Efficacy result_value=136

Which Efficacy is listed for "CC(=O)Cn1nnc(CNC(=O)c2ccc(-c3ccccc3)cc2)n1" ?
14

What value of Efficacy has been reported for the following compound? "CN(C)C(=O)Cn1nnnc1Cc1ccc(-c2ccccc2)cc1"
0

---

# Target Or Test System: Transient receptor potential cation channel subfamily V member 1 (Homo sapiens, UniProt Q8NER1)
# Sequence (Q8NER1 whole entry): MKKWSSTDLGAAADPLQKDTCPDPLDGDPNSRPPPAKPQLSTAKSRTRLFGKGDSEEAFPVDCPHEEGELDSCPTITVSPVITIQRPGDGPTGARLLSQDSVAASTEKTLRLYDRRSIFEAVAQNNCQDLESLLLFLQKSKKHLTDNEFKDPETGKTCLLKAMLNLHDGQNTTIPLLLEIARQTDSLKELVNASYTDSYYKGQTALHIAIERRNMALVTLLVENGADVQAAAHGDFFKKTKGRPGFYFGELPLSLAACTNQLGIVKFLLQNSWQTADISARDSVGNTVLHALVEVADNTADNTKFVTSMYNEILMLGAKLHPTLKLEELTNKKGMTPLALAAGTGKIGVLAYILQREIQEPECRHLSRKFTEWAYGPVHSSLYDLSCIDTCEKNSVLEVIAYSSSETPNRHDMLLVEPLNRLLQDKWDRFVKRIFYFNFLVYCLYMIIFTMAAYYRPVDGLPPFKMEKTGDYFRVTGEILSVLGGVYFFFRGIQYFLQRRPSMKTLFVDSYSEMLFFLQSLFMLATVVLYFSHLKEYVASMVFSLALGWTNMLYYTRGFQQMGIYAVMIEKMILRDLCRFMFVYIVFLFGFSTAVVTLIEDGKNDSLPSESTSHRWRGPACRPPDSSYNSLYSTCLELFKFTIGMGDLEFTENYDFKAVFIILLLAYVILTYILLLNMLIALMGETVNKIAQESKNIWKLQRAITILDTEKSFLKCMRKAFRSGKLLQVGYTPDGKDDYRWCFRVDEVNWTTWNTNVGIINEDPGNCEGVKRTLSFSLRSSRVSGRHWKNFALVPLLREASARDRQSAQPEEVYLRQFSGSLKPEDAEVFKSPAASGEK
# Assay Info: Agonist activity at human TRPV1 channel expressed in human HEK293 cells assessed as elevation in intracellular calcium flux at 10 uM relative to ionomycin
# Assay type: functional, cell-based
Labels assigned by Efficacy range: interval 1 = under 1%, interval 2 = from 1% up to 5%, interval 3 = 5% and over

test_smiles=COC(=O)Cn1nnnc1CNC(=O)c1ccc(-c2ccccc2)cc1 group="interval 3"
test_smiles=CC(=O)Cn1nnnc1CNC(=O)c1ccc(-c2ccccc2)cc1 group="interval 3"
test_smiles=N#CCn1nnc(CNC(=O)c2ccc(-c3ccccc3)cc2)n1 group="interval 2"
test_smiles=N#CCn1nnnc1Cc1ccc(-c2ccccc2)cc1 group="interval 3"
test_smiles=COC(=O)Cn1nnnc1Cc1ccc(-c2ccccc2)cc1 group="interval 1"

Please report the category associated with "CC(C)Cn1nnnc1CNC(=O)c1ccc(-c2ccccc2)cc1" , nothing else.
interval 3

GET /class?item= "CN(C)C(=O)Cn1nnc(Cc2ccc(-c3ccccc3)cc2)n1"
interval 3

Lab note: sort "CC(C)Cn1nnc(CNC(=O)c2ccc(-c3ccccc3)cc2)n1" into the matching Efficacy band.
interval 3

Hi there! Could you help me figure out the category for "CN(C)C(=O)Cn1nnc(CNC(=O)c2ccc(-c3ccccc3)cc2)n1" please?
interval 2

---

# Target Or Test System: Transient receptor potential cation channel subfamily A member 1 (Rattus norvegicus, UniProt Q6RI86)
# Sequence (Q6RI86 whole entry): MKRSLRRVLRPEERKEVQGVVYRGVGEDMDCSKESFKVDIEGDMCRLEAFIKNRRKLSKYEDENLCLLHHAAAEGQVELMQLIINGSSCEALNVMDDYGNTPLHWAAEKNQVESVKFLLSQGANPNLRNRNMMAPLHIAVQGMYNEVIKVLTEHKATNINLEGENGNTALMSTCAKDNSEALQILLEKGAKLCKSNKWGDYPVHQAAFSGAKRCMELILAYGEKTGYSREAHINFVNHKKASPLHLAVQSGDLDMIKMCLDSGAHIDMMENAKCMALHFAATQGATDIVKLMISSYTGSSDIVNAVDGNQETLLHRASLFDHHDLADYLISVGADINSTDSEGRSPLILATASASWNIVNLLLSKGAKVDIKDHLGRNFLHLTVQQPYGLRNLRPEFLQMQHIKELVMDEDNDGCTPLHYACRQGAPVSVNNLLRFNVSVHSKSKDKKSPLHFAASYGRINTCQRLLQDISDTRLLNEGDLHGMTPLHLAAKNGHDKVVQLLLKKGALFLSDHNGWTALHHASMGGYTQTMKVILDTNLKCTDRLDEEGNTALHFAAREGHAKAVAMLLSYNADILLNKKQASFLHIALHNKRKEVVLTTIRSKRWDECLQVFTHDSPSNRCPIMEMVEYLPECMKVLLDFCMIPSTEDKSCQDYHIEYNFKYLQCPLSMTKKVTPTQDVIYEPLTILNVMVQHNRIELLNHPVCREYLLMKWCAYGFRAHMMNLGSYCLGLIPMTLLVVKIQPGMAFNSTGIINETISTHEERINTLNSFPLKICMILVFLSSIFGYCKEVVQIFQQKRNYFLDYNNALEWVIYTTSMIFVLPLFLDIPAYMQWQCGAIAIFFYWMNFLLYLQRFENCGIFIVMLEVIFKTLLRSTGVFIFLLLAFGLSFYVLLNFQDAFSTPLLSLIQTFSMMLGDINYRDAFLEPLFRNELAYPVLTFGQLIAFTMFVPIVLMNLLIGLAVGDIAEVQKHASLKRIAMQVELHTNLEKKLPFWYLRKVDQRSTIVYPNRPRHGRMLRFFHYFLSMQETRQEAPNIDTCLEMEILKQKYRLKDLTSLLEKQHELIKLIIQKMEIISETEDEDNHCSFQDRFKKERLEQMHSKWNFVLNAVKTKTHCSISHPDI
# Assay Info: Agonist activity at rat TRPA1 channel expressed in human HEK293 cells assessed as elevation in intracellular calcium flux
Measurement Label: EC50

A selection of reference data follows.
test_smiles=COC(=O)Cn1nnnc1Cc1ccc(-c2ccccc2)cc1 result_value="> 100 µM"
test_smiles=CC(C)Cn1nnnc1Cc1ccc(-c2ccccc2)cc1 result_value="> 100 µM"
test_smiles=N#CCn1nnc(Cc2ccc(-c3ccccc3)cc2)n1 result_value="16.2 µM"
test_smiles=CC(=O)Cn1nnnc1CNC(=O)c1ccc(-c2ccccc2)cc1 result_value="> 100 µM"
test_smiles=CN(C)C(=O)Cn1nnnc1Cc1ccc(-c2ccccc2)cc1 result_value="> 100 µM"

Suppose we examine the compound "CN(C)C(=O)Cn1nnc(CNC(=O)c2ccc(-c3ccccc3)cc2)n1" ; what EC50 value has been reported?
> 100 µM

Need EC50, item "N#CCn1nnnc1Cc1ccc(-c2ccccc2)cc1"
26.3 µM

State the recorded EC50 for this entry: "CC(=O)Cn1nnc(CNC(=O)c2ccc(-c3ccccc3)cc2)n1"
> 100 µM

I am curious: what EC50 value has been reported for "CC(C)Cn1nnnc1CNC(=O)c1ccc(-c2ccccc2)cc1" ?
> 100 µM

// returns reported EC50 for input "CC(C)Cn1nnc(CNC(=O)c2ccc(-c3ccccc3)cc2)n1"
> 100 µM

Name the recorded EC50 for "CN(C)C(=O)Cn1nnc(Cc2ccc(-c3ccccc3)cc2)n1" .
> 100 µM

Fill in: EC50 of "N#CCn1nnnc1CNC(=O)c1ccc(-c2ccccc2)cc1" is ___
> 100 µM

Report EC50 for "COC(=O)Cn1nnc(Cc2ccc(-c3ccccc3)cc2)n1" please.
> 100 µM

Which EC50 value belongs to "CC(=O)Cn1nnnc1Cc1ccc(-c2ccccc2)cc1" ?
> 100 µM

Can you look up the measured EC50 of "COC(=O)Cn1nnc(CNC(=O)c2ccc(-c3ccccc3)cc2)n1" for me?
> 100 µM

I'd like to know its EC50. The compound in question is "N#CCn1nnc(CNC(=O)c2ccc(-c3ccccc3)cc2)n1"
> 100 µM

Param item = "COC(=O)Cn1nnnc1CNC(=O)c1ccc(-c2ccccc2)cc1" ; retrieve measured EC50.
> 100 µM

Look at this compound and give its reported EC50. "CC(C)Cn1nnc(Cc2ccc(-c3ccccc3)cc2)n1"
26.3 µM

Item "CC(=O)Cn1nnc(Cc2ccc(-c3ccccc3)cc2)n1" has what recorded EC50?
> 100 µM

---

What follows is a collection of Ki values obtained with UniProtKB P34972.
Sequence (P34972 whole entry): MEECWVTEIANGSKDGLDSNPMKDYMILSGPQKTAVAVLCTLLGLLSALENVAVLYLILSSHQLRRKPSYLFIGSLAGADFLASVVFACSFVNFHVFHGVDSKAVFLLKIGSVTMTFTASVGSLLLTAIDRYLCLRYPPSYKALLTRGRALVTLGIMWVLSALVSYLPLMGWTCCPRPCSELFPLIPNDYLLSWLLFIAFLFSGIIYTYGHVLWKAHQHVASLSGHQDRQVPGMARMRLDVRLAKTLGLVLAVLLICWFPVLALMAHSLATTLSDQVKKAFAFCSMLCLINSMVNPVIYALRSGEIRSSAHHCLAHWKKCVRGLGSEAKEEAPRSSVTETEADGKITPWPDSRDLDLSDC

test_smiles=COC(=O)Cn1nnc(CNC(=O)c2ccc(-c3ccccc3)cc2)n1 measurement_label=Ki result_value="> 10 µM"
test_smiles=CN(C)C(=O)Cn1nnnc1Cc1ccc(-c2ccccc2)cc1 measurement_label=Ki result_value="> 10 µM"
test_smiles=CC(=O)Cn1nnc(Cc2ccc(-c3ccccc3)cc2)n1 measurement_label=Ki result_value="5.2 µM"
test_smiles=CC(C)Cn1nnnc1Cc1ccc(-c2ccccc2)cc1 measurement_label=Ki result_value="7.7 µM"
test_smiles=COC(=O)Cn1nnnc1Cc1ccc(-c2ccccc2)cc1 measurement_label=Ki result_value="> 10 µM"

Given the entry "N#CCn1nnc(CNC(=O)c2ccc(-c3ccccc3)cc2)n1" , report its measured Ki.
> 10 µM

Recorded Ki for "CC(=O)Cn1nnnc1CNC(=O)c1ccc(-c2ccccc2)cc1" , please?
> 10 µM

For "CC(C)Cn1nnc(Cc2ccc(-c3ccccc3)cc2)n1" , what is its reported Ki?
4.7 µM

What value of Ki has been recorded for this entry: "CC(=O)Cn1nnc(CNC(=O)c2ccc(-c3ccccc3)cc2)n1"
> 10 µM

Consider the compound "COC(=O)Cn1nnnc1CNC(=O)c1ccc(-c2ccccc2)cc1" and give its measured Ki.
> 10 µM

Give its Ki value. Item: "N#CCn1nnnc1Cc1ccc(-c2ccccc2)cc1"
> 10 µM

---

# Target Or Test System: Diacylglycerol lipase-alpha (Homo sapiens)
# Sequence (Q9Y4D2 whole entry): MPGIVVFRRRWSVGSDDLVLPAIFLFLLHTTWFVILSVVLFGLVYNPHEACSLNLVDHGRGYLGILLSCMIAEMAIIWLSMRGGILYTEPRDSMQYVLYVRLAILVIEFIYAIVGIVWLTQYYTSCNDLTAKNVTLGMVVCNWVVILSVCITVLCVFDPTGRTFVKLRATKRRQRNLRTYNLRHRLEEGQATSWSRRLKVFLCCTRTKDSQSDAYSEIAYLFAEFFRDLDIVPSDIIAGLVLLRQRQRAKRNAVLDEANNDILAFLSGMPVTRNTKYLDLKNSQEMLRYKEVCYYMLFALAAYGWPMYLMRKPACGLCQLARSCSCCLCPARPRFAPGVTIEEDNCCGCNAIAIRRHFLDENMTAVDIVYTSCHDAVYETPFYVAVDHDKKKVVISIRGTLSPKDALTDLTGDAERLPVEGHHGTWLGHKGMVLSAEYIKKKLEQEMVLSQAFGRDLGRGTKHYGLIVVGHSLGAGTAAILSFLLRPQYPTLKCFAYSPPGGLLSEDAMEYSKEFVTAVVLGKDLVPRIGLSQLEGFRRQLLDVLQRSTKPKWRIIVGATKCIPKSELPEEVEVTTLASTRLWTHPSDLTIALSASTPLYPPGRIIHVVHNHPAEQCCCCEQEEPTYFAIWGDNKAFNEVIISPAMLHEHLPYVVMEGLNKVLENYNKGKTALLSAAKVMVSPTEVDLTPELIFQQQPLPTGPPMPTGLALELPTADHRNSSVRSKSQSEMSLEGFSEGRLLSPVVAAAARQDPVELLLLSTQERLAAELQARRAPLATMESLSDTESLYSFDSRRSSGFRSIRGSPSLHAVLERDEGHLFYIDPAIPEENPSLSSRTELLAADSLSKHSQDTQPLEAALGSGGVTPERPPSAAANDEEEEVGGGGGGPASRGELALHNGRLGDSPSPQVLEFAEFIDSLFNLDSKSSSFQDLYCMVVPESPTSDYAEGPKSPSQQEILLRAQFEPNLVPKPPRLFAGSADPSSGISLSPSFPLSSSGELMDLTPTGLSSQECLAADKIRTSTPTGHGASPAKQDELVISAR
# Assay Info: Inhibition of human DAGLalpha mediated sn-1-[14C]oleoyl-2-arachidonoyl-glycerol hydrolysis to 2-AG in COS cell
Parameter IC50: see the listing below.

Recorded IC50, per entry:
test_smiles=CN(C)C(=O)Cn1nnc(CNC(=O)c2ccc(-c3ccccc3)cc2)n1 result_value="> 10 µM"
test_smiles=CC(C)Cn1nnnc1Cc1ccc(-c2ccccc2)cc1 result_value="> 10 µM"
test_smiles=CC(C)Cn1nnc(Cc2ccc(-c3ccccc3)cc2)n1 result_value="> 10 µM"
test_smiles=CC(=O)Cn1nnc(CNC(=O)c2ccc(-c3ccccc3)cc2)n1 result_value="> 10 µM"
test_smiles=CN(C)C(=O)Cn1nnnc1Cc1ccc(-c2ccccc2)cc1 result_value="> 10 µM"
test_smiles=N#CCn1nnnc1CNC(=O)c1ccc(-c2ccccc2)cc1 result_value="> 10 µM"
test_smiles=COC(=O)Cn1nnnc1Cc1ccc(-c2ccccc2)cc1 result_value="> 10 µM"
test_smiles=CC(C)Cn1nnnc1CNC(=O)c1ccc(-c2ccccc2)cc1 result_value="> 10 µM"

Would you kindly look at the next entry?
So what's the measured IC50 for this one? "CN(C)C(=O)Cn1nnc(Cc2ccc(-c3ccccc3)cc2)n1"
> 10 µM
